# target-or-system: α-Amylase from porcine pancreas (Sus scrofa, UniProt P00690)
# Construct: purchased Sigma-Aldrich (Shanghai, China); host or cells: porcine pancreas
# Sequence (P00690 16-511): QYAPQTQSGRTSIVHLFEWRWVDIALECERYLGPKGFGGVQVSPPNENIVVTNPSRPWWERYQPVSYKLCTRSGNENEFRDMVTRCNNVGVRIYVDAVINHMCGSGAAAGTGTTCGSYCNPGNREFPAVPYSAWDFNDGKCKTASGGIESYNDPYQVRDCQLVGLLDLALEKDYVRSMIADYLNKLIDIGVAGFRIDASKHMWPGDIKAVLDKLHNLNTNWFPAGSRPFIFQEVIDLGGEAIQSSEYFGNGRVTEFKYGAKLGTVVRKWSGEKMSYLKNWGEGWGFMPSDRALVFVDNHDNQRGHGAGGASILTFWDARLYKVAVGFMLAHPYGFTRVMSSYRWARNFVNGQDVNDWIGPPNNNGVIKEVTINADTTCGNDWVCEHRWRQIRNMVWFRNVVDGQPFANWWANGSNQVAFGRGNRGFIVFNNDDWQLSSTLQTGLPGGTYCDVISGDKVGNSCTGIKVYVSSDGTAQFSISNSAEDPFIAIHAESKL
# assay-name: Fluorescence quenching, binding and thermodynamic analysis, α-amylase
# condition-summary: KD dissociation constant, α-amylase, 37 °C
property: pKd
// field semantics: pKd = negative decimal log of concentration (mol/L)

Query: Tell me reported pKd for "O=c1c(-c2ccc(O)cc2)coc2cc(O)cc(O)c12" , tested with α-Amylase from porcine pancreas (Sus scrofa, UniProt P00690).
Response: 3.96
